FYI, the data here is from paper PMC12154458.

Measured Target: rSmTAChE (Schistosoma mansoni, UniProt A0A3Q0KMM5)
Experiment Notes: biochemical

Compound	Inhibition (%) Replicate B
C[C@]12CC[C@@H]3c4ccc(O)cc4C[C@@H](CCCCCCCCC[S+]([O-])CCCC(F)(F)C(F)(F)F)[C@H]3[C@@H]1CC[C@@H]2O (stereo partly drawn) [BRD-A85667082-001-10-1]	86.54
COc1ccc(NC(=O)Nc2ccc3c(c2)[C@@H]2C[C@H](CC(=O)NCc4ccccn4)O[C@@H](CO)[C@@H]2O3)cc1 [BRD-K62846431-001-01-3]	77.82
COc1cccc(C#Cc2ccc([C@H]3[C@@H](C#N)N(C(=O)c4ccccn4)[C@@H]3CO)cc2)c1 [BRD-K61082257-001-01-7]	66.40
O=C(C[C@@H]1C[C@@H]2c3cc(NC(=O)Nc4ccccc4)ccc3O[C@@H]2[C@@H](CO)O1)NC1CCCC1 [BRD-K74918080-001-01-0]	89.77
CC(C)Oc1ccc(-c2cnc3c(-c4ccnc5ccccc45)cnn3c2)cc1 [BRD-K39381259-001-02-8]	71.32
Cc1cc(SCc2sc(-c3ccc(C(F)(F)F)cc3)nc2C)ccc1OCC(=O)O [BRD-K14880289-001-03-0]	78.91

---

Measured Target: rSmTAChE (Schistosoma mansoni, UniProt A0A3Q0KMM5)
Assay type: biochemical

Compound	Measured Target	Data Mode (curve class), rSmTAChE
C[C@]12CCC3c4ccc(O)cc4CCC3C1CC[C@@H]2OC(=O)CCC1CCCC1 (stereo partly shown) [BRD-A91452556-001-04-0]	rSmTAChE (Schistosoma mansoni, UniProt A0A3Q0KMM5)	inactive
Cc1cn2nc([C@@H]3CCCCN3C(=O)c3cc(Cl)ccc3NS(C)(=O)=O)cc2nc1N1CC[C@H](N)C1 [Presatovir, reference compound]	rSmTAChE (Schistosoma mansoni, UniProt A0A3Q0KMM5)	decreasing
C[C@]12CC[C@@H]3c4ccc(O)cc4C[C@@H](CCCCCCCCC[S+]([O-])CCCC(F)(F)C(F)(F)F)[C@H]3[C@@H]1CC[C@@H]2O (stereo partly shown) [BRD-A85667082-001-11-9]	rSmTAChE (Schistosoma mansoni, UniProt A0A3Q0KMM5)	inactive
CC#C[C@@H](CC(=O)O)c1ccc(OCc2cccc(-c3ccc(C(F)(F)F)cc3)c2)cc1 [BRD-K43802723-340-01-9]	rSmTAChE (Schistosoma mansoni, UniProt A0A3Q0KMM5)	decreasing
CCCCC/C=C\C/C=C\C/C=C\C/C=C\CCCC(=O)Nc1ccc(O)cc1 [BRD-K55462201-001-07-3]	rSmTAChE (Schistosoma mansoni, UniProt A0A3Q0KMM5)	inactive
C[C@]12CCC3c4ccc(OC(=O)c5ccccc5)cc4CCC3C1CC[C@@H]2O (stereo partly shown) [BRD-A74765037-001-01-1]	rSmTAChE (Schistosoma mansoni, UniProt A0A3Q0KMM5)	inactive

---

Inhibition (%) Replicate A for assorted compounds
Measured Target: rSmTAChE (Schistosoma mansoni)
Experiment Notes: biochemical
Quantity Kind: Inhibition (%) Replicate A

>>> print(df.to_string())
                                   compound  readout_unit  obs_value
0  CC(=O)c1cc([N+](=O)[O-])c(Sc2cccc(Cl)c2Cl)s1 [BRD-K13606314-001-01-3]             %      72.57
1  C[C@H](CO)N1C[C@H](C)[C@H](CN(C)CC2CC2)OCc2ccccc2-c2c(n(C)c3ccccc23)C1=O [BRD-K90625171-001-01-1]             %      64.87
2  CCc1nc(-c2cccc(C)c2)c(-c2ccnc(NC(=O)c3ccccc3)c2)s1 [BRD-K52751261-001-08-7]             %      75.76
3  N#C[C@H]1[C@H](c2ccc(C#CC3CC3)cc2)[C@H](CO)N1C(=O)Cc1ccccn1 [BRD-K00124439-001-01-2]             %      63.67

---

Measured Target: rSmTAChE (Schistosoma mansoni)
Experiment Notes: biochemical
Form field: Inhibition (%) Replicate B (one value per entry).
Quantity Kind: Inhibition (%) Replicate B

In [3]: df
Out[3]:
                                   compound  obs_value
0  CCOC(=O)N1c2ccc(C(F)(F)F)cc2[C@@H](N(Cc2cc(C(F)(F)F)cc(C(F)(F)F)c2)C(=O)OC)C[C@H]1CC [BRD-K55675242-001-03-0]      69.34
1  CC(C)C#Cc1ccc([C@@H]2[C@@H](CO)N3C(=O)CN(S(=O)(=O)c4ccccc4)C[C@@H]23)cc1 [BRD-K69261014-001-01-3]      60.39
2  CCCCc1oc2ccccc2c1C(=O)c1cc(I)c(OCCN(CC)CC)c(I)c1 [BRD-K17561142-003-35-8]      72.67
3  O=C(O)c1ccccc1Nc1ccc(CCc2ccc(Cl)c(Cl)c2)cc1 [BRD-K34657753-001-01-9]      81.56
4  CCCCCCCCCCCCc1ccc(S(=O)(=O)Nc2nncs2)cc1 [BRD-K59745944-001-04-6]      75.72
5  N#Cc1ccc(N2NC3=C(CCc4cc(C(=O)O)ccc43)[C@@H]2C2CCCC2)cc1Cl [BRD-K51041191-001-01-4]      63.46
6  Cc1nc2sccn2c(=O)c1CCN1CCC(=C(c2ccc(F)cc2)c2ccc(F)cc2)CC1 [BRD-K40887525-001-23-5]      79.42

---

Measured Target: rSmTAChE (Schistosoma mansoni, UniProt A0A3Q0KMM5)
Format: biochemical
Details: read-out: qAC50 (IC50), rSmTAChE
A collection of compounds and their measured IC50
Quantity Kind: IC50

Compound	Quantity Kind	Obs Value
CC#C[C@@H](CC(=O)O)c1ccc(OCc2cccc(-c3ccc(C(F)(F)F)cc3)c2)cc1 [BRD-K43802723-340-01-9]	IC50	13.4 µM
C[C@]12CC[C@@H]3c4ccc(O)cc4C[C@@H](CCCCCCCCC[S+]([O-])CCCC(F)(F)C(F)(F)F)[C@H]3[C@@H]1CC[C@@H]2O (stereo partly drawn) [BRD-A85667082-001-12-7]	IC50	> 38 µM
Cc1cc(Oc2ccc3nc(COc4ccc(CC5SC(=O)NC5=O)cc4)n(C)c3c2)cc(C)c1N (stereo not drawn) [BRD-A24560335-300-01-2]	IC50	> 38 µM
CCC(CC)C(c1ccc(Nc2nc3ccccc3s2)cc1)n1cncn1 (stereo not drawn) [BRD-A95755460-001-01-3]	IC50	> 38 µM
CC1(C)CCC(C)(C)c2cc(C#Cc3ccc(C(=O)O)cc3)ccc21 [BRD-K81004638-001-01-7]	IC50	19.8 µM
Cc1nc2sccn2c(=O)c1CCN1CCC(=C(c2ccc(F)cc2)c2ccc(F)cc2)CC1 [BRD-K40887525-001-23-5]	IC50	> 19.5 µM
O=C(O)c1ccccc1Nc1ccc(CCc2ccc(Cl)c(Cl)c2)cc1 [BRD-K34657753-001-01-9]	IC50	12.4 µM
CCCCCCCCCCCCCCCC[N+](C)(C)C [BRD-K47079459-004-04-6]	IC50	17 µM
Cc1cc(C#N)cc(C)c1Oc1nc(Nc2ccc(C#N)cc2)nc(N)c1Br [BRD-K74717603-001-02-2]	IC50	> 38 µM
CCCN1C[C@H](CSC)C[C@@H]2c3cccc4[nH]cc(c34)C[C@H]21 [BRD-K60770992-066-25-0]	IC50	> 38 µM
CC(C)Oc1ccc(-c2nn([C@@H](C)c3oc4ccc(F)cc4c(=O)c3-c3cccc(F)c3)c3ncnc(N)c23)cc1F [BRD-K52579889-001-01-9]	IC50	> 38 µM
CCCCCCCCCCCCc1ccc(S(=O)(=O)Nc2nncs2)cc1 [BRD-K59745944-001-04-6]	IC50	1.86 µM
COC(=O)[C@]12CCC(C)(C)C[C@@H]1[C@@H]1C(=O)C=C3[C@]4(C)C=C(C#N)C(=O)C(C)(C)[C@@H]4CC[C@@]3(C)[C@]1(C)CC2 [BRD-K69694239-001-02-2]	IC50	34.7 µM
C#C[C@]1(OC(C)=O)CC[C@H]2[C@@H]3CCC4=C[C@@H](OC(C)=O)CC[C@@H]4[C@H]3CC[C@@]21C [BRD-K46331928-001-05-8]	IC50	> 38 µM
O=C(O)C1(C(=O)O)CCC1.[NH2-].[NH2-].[Pt+2] [BRD-K90947825-001-02-7]	IC50	35.4 µM
N#Cc1ccc(N2NC3=C(CCc4cc(C(=O)O)ccc43)[C@@H]2C2CCCC2)cc1Cl [BRD-K51041191-001-01-4]	IC50	> 38 µM
CCCCc1oc2ccc(NS(C)(=O)=O)cc2c1C(=O)c1ccc(OCCCN(CCCC)CCCC)cc1 [BRD-K05524748-003-04-4]	IC50	> 38 µM
O=C(Cc1cccc(OC(F)(F)F)c1)Nc1ccc(CCCCc2nnc(NC(=O)Cc3ccccn3)s2)nn1 [BRD-K58070273-001-03-3]	IC50	> 38 µM
Clc1ccc(CSC(Cn2ccnc2)c2ccc(Cl)cc2Cl)cc1 (stereo not drawn) [BRD-A70649075-008-30-8]	IC50	> 38 µM
C=CCNc1nc(NCC=C)nc(N2CCN(C(c3ccc(F)cc3)c3ccc(F)cc3)CC2)n1 [BRD-K82677201-001-01-6]	IC50	> 38 µM
CC(C)(O)c1ccccc1CC[C@@H](SCC1(CC(=O)O)CC1)c1cccc(/C=C/c2ccc3ccc(Cl)cc3n2)c1 [BRD-K69470111-001-01-2]	IC50	> 38 µM
COC(=O)N[C@H](C(=O)N1CC2(CC2)C[C@H]1c1ncc(-c2ccc3c(c2)C(F)(F)c2cc(-c4ccc5nc([C@@H]6[C@H]7CC[C@H](C7)N6C(=O)[C@@H](NC(=O)OC)C(C)C)[nH]c5c4)ccc2-3)[nH]1)C(C)C [BRD-K05446112-001-01-8]	IC50	> 38 µM
O=C1[C@@H]2[C@H]3CC[C@H](C3)[C@@H]2C(=O)N1C[C@@H]1CCCC[C@H]1CN1CCN(c2nsc3ccccc23)CC1 [BRD-K51143828-003-03-1]	IC50	> 38 µM
CCCCc1oc2ccccc2c1C(=O)c1cc(I)c(OCCN(CC)CC)c(I)c1 [BRD-K17561142-003-35-8]	IC50	> 38 µM
Cc1c(C(=O)NN2CCCCC2)nn(-c2ccc(Cl)cc2Cl)c1-c1ccc(Cl)cc1 [BRD-K13296708-001-05-8]	IC50	> 38 µM
CCOc1nc2cccc(C(=O)OCc3oc(=O)oc3C)c2n1Cc1ccc(-c2ccccc2-c2noc(=O)[nH]2)cc1 [BRD-K25723200-001-03-5]	IC50	11.6 µM
CCCNC(=O)Nc1ccc(Oc2ncnc3cc(OC)c(OC)cc23)cc1Cl [BRD-K90993449-001-02-7]	IC50	> 38 µM
